Listed below: change in vivo at 25 µmol/kg values for each entry.
# Test system: genetisch hypertonen Ratten
# RUN DESCRIPTION: Antihypertensive effect in the spontaneously hypertensive rat, systolic blood pressure by tail cuff after oral dosing
# Format: in vivo, Ratte
# CONDITION CONTEXT: Rattus norvegicus, po, 24 h, 24h after dosing; 25 µmol/kg p.o. once daily on two consecutive days; male SHR/N/Ibm/Bm rats, N=6; mean of day 1 and 2; read-out: BP (% Änderung vs. Kontrolle), Mittelwert für Meßzeitpunkte: Stunden nach Gabe (1. und 2. Tag) 24h
# Description: Die antihypertensive Wirksamkeit der erfindungsgemäßen Verbindungen kann am Modell der spontan hypertonen Ratte nachgewiesen werden. Zur Bestimmung der antihypertensiven Wirkung werden die unten aufgeführten Verbindungen in den angegebenen Dosen an zwei aufeinander folgenden Tagen an je 6 männlichen Ratten (Stamm SHR/N/Ibm/Bm, 250-350 g) mit genetisch bedingtem Hochdruck (systolischer Blutdruck > 180 mmHg) täglich einmal mittels Schlundsonde verabfolgt. […]
Use % as the unit, but write only the number.

1) COC(=O)C1=C(C)NC(C)=C(C(=O)O[C@H](c2ccccc2)[C@@H](C)N(C)Cc2cc(OC)c(OC)c(OC)c2)C1c1cccc([N+](=O)[O-])c1 (single isomer, unassigned) [Beispiel 15] : -37
2) COC(=O)C1=C(C)NC(C)=C(C(=O)O[C@@H](c2ccccc2)[C@@H](C)N)C1c1cccc([N+](=O)[O-])c1 (single isomer, unassigned) [17 (-104,3°)] : -14.5
3) CN[C@H](C)[C@@H](OC(=O)C1=C(C)NC(C)=C(C(=O)OC)C1c1cccc([N+](=O)[O-])c1)c1ccccc1 (single isomer, unassigned) [7 (-88°)] : -11.5

Entry COC(=O)C1=C(C)NC(C)=C(C(=O)O[C@H](c2ccccc2)[C@H](C)N)C1c1cccc([N+](=O)[O-])c1 (single isomer, unassigned) [16 (+216,4°)] , genetisch hypertonen Ratten data, change in vivo at 25 µmol/kg value: -21.5

Observed change in vivo at 25 µmol/kg, genetisch hypertonen Ratten, CN[C@@H](C)[C@H](OC(=O)C1=C(C)NC(C)=C(C(=O)OC)C1c1cccc([N+](=O)[O-])c1)c1ccccc1 (single isomer, unassigned) [8 (+202,6°)] : -10.5

====

Below, each entry is listed with its recorded change in vivo at 25 µmol/kg.
# Tested on: genetisch hypertonen Ratten
# RUN DESCRIPTION: Antihypertensive effect in the spontaneously hypertensive rat, systolic blood pressure by tail cuff after oral dosing
# Format: in vivo, Ratte
# CONDITION CONTEXT: Rattus norvegicus, po, 6 h, 6h after dosing; 25 µmol/kg p.o. once daily on two consecutive days; male SHR/N/Ibm/Bm rats, N=6; mean of day 1 and 2; read-out: BP (% Änderung vs. Kontrolle), Mittelwert für Meßzeitpunkte: Stunden nach Gabe (1. und 2. Tag) 6h
Write it as a number; the unit % goes unstated.

// worked examples, change in vivo at 25 µmol/kg included
1. COC(=O)C1=C(C)NC(C)=C(C(=O)O[C@H](c2ccccc2)[C@@H](C)N(C)Cc2cc(OC)c(OC)c(OC)c2)C1c1cccc([N+](=O)[O-])c1 (single isomer, unassigned) : -56
2. COC(=O)C1=C(C)NC(C)=C(C(=O)O[C@H](c2ccccc2)[C@H](C)N(C)CC=Cc2ccccc2)C1c1cccc([N+](=O)[O-])c1 (single isomer, unassigned) : -41.5
3. COC(=O)C1=C(C)NC(C)=C(C(=O)O[C@H](c2ccccc2)[C@H](C)N)C1c1cccc([N+](=O)[O-])c1 (single isomer, unassigned) [16 (+216,4°)] : -56.5
4. CCN(C)[C@@H](C)[C@H](OC(=O)C1=C(C)NC(C)=C(C(=O)OC)C1c1cccc([N+](=O)[O-])c1)c1ccccc1 (single isomer, unassigned) : -38
5. CN[C@H](C)[C@@H](OC(=O)C1=C(C)NC(C)=C(C(=O)OC)C1c1cccc([N+](=O)[O-])c1)c1ccccc1 (single isomer, unassigned) [7 (-88°)] : -46

Reported change in vivo at 25 µmol/kg ( COC(=O)C1=C(C)NC(C)=C(C(=O)O[C@H](c2ccccc2)[C@H](C)N(C)Cc2ccccc2)C1c1cccc([N+](=O)[O-])c1 (single isomer, unassigned) ) = -48

The reported change in vivo at 25 µmol/kg of the compound CN[C@@H](C)[C@H](OC(=O)C1=C(C)NC(C)=C(C(=O)OC)C1c1cccc([N+](=O)[O-])c1)c1ccccc1 (single isomer, unassigned) [8 (+202,6°)] was -43

Per the record, CN[C@@H](C)[C@@H](OC(=O)C1=C(C)NC(C)=C(C(=O)OC)C1c1cccc([N+](=O)[O-])c1)c1ccccc1 (single isomer, unassigned) [9 (-66,3°)] has change in vivo at 25 µmol/kg of -49.5

Recorded change in vivo at 25 µmol/kg (compound COC(=O)C1=C(C)NC(C)=C(C(=O)O[C@@H](c2ccccc2)[C@@H](C)N)C1c1cccc([N+](=O)[O-])c1 (single isomer, unassigned) [17 (-104,3°)] ): -47

Per the records, this compound ( CN[C@H](C)[C@H](OC(=O)C1=C(C)NC(C)=C(C(=O)OC)C1c1cccc([N+](=O)[O-])c1)c1ccccc1 (single isomer, unassigned) [10 (+165,5°)] ) has change in vivo at 25 µmol/kg equal to -39.5

Value of measured change in vivo at 25 µmol/kg for the entry CCOC(=O)C1=C(C)NC(C)=C(C(=O)O[C@@H](c2ccccc2)[C@@H](C)N(C)C)C1c1cccc([N+](=O)[O-])c1 (single isomer, unassigned) : -34.3
